// data source = paper PMC9917184

Provide the reported Percentage of secreted IL-6 to the media of each item.
Test system: IL-6
assayProtocol: IL-6 secretion to the media by ELISA
Assay type: cell-based, human
statedConditions: MCF7 monoculture, 100 μM, 24 h, control = 100
Numbers only, in %.

A selection of reference data follows.
{"compound": "Cc1c(COc2ccc(CN3CCCCC3C(=O)O)cc2Br)cccc1-c1ccccc1 (stereo not shown) [BMS-8, reference compound]", "unitDescriptor": "%", "Percentage of secreted IL-6 to the media": 41}
{"compound": "COc1ccc(C(OCCc2ccc(CCn3cc(-c4ccccc4Br)nn3)cc2)(c2ccccc2)c2ccc(OC)cc2)cc1", "unitDescriptor": "%", "Percentage of secreted IL-6 to the media": 91}
{"compound": "COc1ccc(C(OCCc2ccc(CCn3cc(-c4cccc(Br)c4)nn3)cc2)(c2ccccc2)c2ccc(OC)cc2)cc1", "unitDescriptor": "%", "Percentage of secreted IL-6 to the media": 73}

Kindly consider the entry below.
Q: Which measured Percentage of secreted IL-6 to the media value corresponds to "COc1ccc(C(OCCc2ccc(CCn3cc(-c4ccc(Br)cc4)nn3)cc2)(c2ccccc2)c2ccc(OC)cc2)cc1" ?
A: 92

* * *

Test system: Jurkat T cells
assayProtocol: Jurkat T cell viability in co-culture with cancer cells (flow cytometry count)
Assay type: cell-based
statedConditions: Homo sapiens, 24 h, HT-29/Jurkat T co-culture, read-out: percentage of living Jurkat cells relative to non-treated co-cultures
Provide the reported viability at 100 µM of each item.
Answers are plain numbers, in %.

A selection of reference data follows.
{"smilesRecord": "COc1ccc(C(OCCc2ccc(CCn3cc(-c4ccc(Br)cc4)nn3)cc2)(c2ccccc2)c2ccc(OC)cc2)cc1", "assayEndpoint": "viability at 100 µM", "unitDescriptor": "%", "reportedMeasurement": 108}
{"smilesRecord": "COc1ccc(-c2cn(CCc3ccc(CCOC(c4ccccc4)(c4ccc(OC)cc4)c4ccc(OC)cc4)cc3)nn2)cc1", "assayEndpoint": "viability at 100 µM", "unitDescriptor": "%", "reportedMeasurement": 56}
{"smilesRecord": "OCCc1ccc(CCn2cc(-c3cccc(Br)c3)nn2)cc1", "assayEndpoint": "viability at 100 µM", "unitDescriptor": "%", "reportedMeasurement": 116}
{"smilesRecord": "OCCc1ccc(CCn2cc(-c3ccccc3Br)nn2)cc1", "assayEndpoint": "viability at 100 µM", "unitDescriptor": "%", "reportedMeasurement": 95}
{"smilesRecord": "COc1ccc(-c2cn(CCc3ccc(CCO)cc3)nn2)cc1", "assayEndpoint": "viability at 100 µM", "unitDescriptor": "%", "reportedMeasurement": 120}
{"smilesRecord": "OCCc1ccc(CCn2cc(-c3ccc(Br)cc3)nn2)cc1", "assayEndpoint": "viability at 100 µM", "unitDescriptor": "%", "reportedMeasurement": 145}

Kindly consider the entry below.
Q: Which measured viability at 100 µM value corresponds to "COc1ccc(C(OCCc2ccc(CCn3cc(-c4ccccc4OC)nn3)cc2)(c2ccccc2)c2ccc(OC)cc2)cc1" ?
A: 110

* * *

Provide the reported viability at 100 µM of each item.
System: MCF-7
assayProtocol: MCF-7 cell viability in co-culture with THP-1 cells
Assay type: cell-based, human
statedConditions: Homo sapiens, MCF7, 48 h, 1:5 MCF-7/THP-1, 100 μM, 48 h, control = 100; read-out: cancer cell viability (MCF-7)
Give bare numbers, in %.

A selection of reference data follows.
{"molecule": "COc1ccc(C(OCCc2ccc(CCn3cc(-c4ccccc4Br)nn3)cc2)(c2ccccc2)c2ccc(OC)cc2)cc1", "assayEndpoint": "viability at 100 µM", "unitDescriptor": "%", "reportedMeasurement": 41}
{"molecule": "COc1ccc(C(OCCc2ccc(CCn3cc(-c4cccc(Br)c4)nn3)cc2)(c2ccccc2)c2ccc(OC)cc2)cc1", "assayEndpoint": "viability at 100 µM", "unitDescriptor": "%", "reportedMeasurement": 42}

Give viability at 100 µM for each of the items listed below.
1. COc1ccc(C(OCCc2ccc(CCn3cc(-c4ccc(Br)cc4)nn3)cc2)(c2ccccc2)c2ccc(OC)cc2)cc1
2. Cc1c(COc2ccc(CN3CCCCC3C(=O)O)cc2Br)cccc1-c1ccccc1 (stereo not shown) [BMS-8, reference compound]

A:
28
42
